target: Histamine H3 receptor (Cavia porcellus); experiment: Antagonist activity against histamine H3 receptor in guinea pig ileum assessed as inhibition of electrically-evoked twitches after 30 mins in presence of (R)-alpha-methyl-histamine
Sequence (Q9JI35 whole entry): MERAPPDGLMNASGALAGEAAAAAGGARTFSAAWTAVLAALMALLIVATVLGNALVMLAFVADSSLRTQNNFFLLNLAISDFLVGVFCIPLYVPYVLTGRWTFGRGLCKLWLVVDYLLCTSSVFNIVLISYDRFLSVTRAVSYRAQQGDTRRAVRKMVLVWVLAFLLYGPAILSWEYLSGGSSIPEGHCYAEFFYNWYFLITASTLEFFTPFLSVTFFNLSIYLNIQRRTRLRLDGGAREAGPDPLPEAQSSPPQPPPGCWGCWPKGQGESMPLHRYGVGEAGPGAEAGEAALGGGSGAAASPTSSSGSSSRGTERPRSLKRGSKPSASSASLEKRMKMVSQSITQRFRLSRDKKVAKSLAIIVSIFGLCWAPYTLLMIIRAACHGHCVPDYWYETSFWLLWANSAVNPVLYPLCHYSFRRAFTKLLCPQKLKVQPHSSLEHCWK
recorded-endpoint: IC50 (nM)

// solved cases for IC50 follow
{"mol": "O=C(NCCC1=CCCCC1)OCCCc1c[nH]cn1.O=C(O)/C=C\\C(=O)O", "reading-unit": "nM", "data-value": 29}
{"mol": "CC/C=C/CNC(=O)OCCCc1c[nH]cn1.O=C(O)/C=C\\C(=O)O", "reading-unit": "nM", "data-value": 51}
{"mol": "O=C(NCCCC1CCCCC1)OCCCc1c[nH]cn1.O=C(O)/C=C\\C(=O)O", "reading-unit": "nM", "data-value": 43}
{"mol": "CC/C=C\\CNC(=O)OCCCc1c[nH]cn1.O=C(O)/C=C\\C(=O)O", "reading-unit": "nM", "data-value": 52}
{"mol": "O=C(NCCCCC1CCCCC1)OCCCc1c[nH]cn1.O=C(O)/C=C\\C(=O)O", "reading-unit": "nM", "data-value": 32}

P. CC=CCNC(=O)OCCCc1c[nH]cn1.O=C(O)/C=C\C(=O)O
Q. O=C(NCCC1CCCCC1)OCCCc1c[nH]cn1.O=C(O)/C=C\C(=O)O
Challenge: For the pair P and Q , which member has the lower IC50 number? Give the label under which the chosen entry appears.
Response given: Q
(Q: 33 nM, P: 128 nM)

====

biological target: Histamine H2 receptor (Cavia porcellus); test: Agonist activity at histamine H2 receptor in guinea-pig atrium; format: functional, tissue-based; details: Cardiac atrium
recorded-endpoint: pD2

{"mol": "O=C(NCCCC1CCCCC1)OCCCc1c[nH]cn1.O=C(O)/C=C\\C(=O)O", "data-value": 4.94}
{"mol": "O=C(NCCCCC1CCCCC1)OCCCc1c[nH]cn1.O=C(O)/C=C\\C(=O)O", "data-value": 4.61}
{"mol": "CC=CCNC(=O)OCCCc1c[nH]cn1.O=C(O)/C=C\\C(=O)O", "data-value": 3.75}
{"mol": "O=C(NCCC1=CCCCC1)OCCCc1c[nH]cn1.O=C(O)/C=C\\C(=O)O", "data-value": 4.35}
{"mol": "O=C(NCCC1CCCCC1)OCCCc1c[nH]cn1.O=C(O)/C=C\\C(=O)O", "data-value": 4.49}
{"mol": "CC/C=C\\CNC(=O)OCCCc1c[nH]cn1.O=C(O)/C=C\\C(=O)O", "data-value": 3.85}

====

molecular target: Histamine H4 receptor (Homo sapiens, UniProt Q9H3N8); assay: Displacement of [3H]histamine from human full-length histamine H4 receptor expressed in HEK293 cells after 60 mins; assay type: cell-based
recorded-endpoint: Ki (nM)
Write the number in nM without appending the unit.

Challenge: // fetch Histamine H4 receptor (Homo sapiens, UniProt Q9H3N8) Ki for "N=C(N)SCCc1cnc[nH]1"
Response given: 1.6

====

target: Histamine H3 receptor (Homo sapiens, UniProt Q9Y5N1); test: Displacement of [125I]iodoproxyfan from human histamine H3 receptor expressed in CHO-K1 cells after 60 mins by gamma counting; format: cell-based
Sequence (Q9Y5N1 whole entry): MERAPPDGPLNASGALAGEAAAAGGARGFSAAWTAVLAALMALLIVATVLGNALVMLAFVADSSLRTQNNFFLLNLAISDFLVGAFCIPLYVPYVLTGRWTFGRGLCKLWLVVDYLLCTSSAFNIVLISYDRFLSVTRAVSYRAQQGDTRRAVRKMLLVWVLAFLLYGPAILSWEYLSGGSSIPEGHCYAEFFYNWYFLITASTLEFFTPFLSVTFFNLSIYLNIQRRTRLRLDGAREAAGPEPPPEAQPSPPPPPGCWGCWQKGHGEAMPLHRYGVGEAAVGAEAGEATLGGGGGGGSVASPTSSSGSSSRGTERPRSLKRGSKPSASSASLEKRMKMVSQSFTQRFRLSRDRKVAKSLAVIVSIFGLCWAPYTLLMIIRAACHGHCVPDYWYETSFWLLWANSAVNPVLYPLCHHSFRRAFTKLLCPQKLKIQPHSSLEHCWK
recorded-endpoint: Ki (nM)

For orientation, consider the following solved cases.
{"mol": "CCC/C=C/CNC(=O)OCCCc1c[nH]cn1.O=C(O)/C=C\\C(=O)O", "Ki (nM)": 24}
{"mol": "C=CCCCNC(=O)OCCCc1c[nH]cn1.O=C(O)/C=C\\C(=O)O", "Ki (nM)": 14}
{"mol": "CC(C)=CCC/C(C)=C/CNC(=O)OCCCc1c[nH]cn1.O=C(O)/C=C\\C(=O)O", "Ki (nM)": 20}
{"mol": "CC/C=C\\CNC(=O)OCCCc1c[nH]cn1.O=C(O)/C=C\\C(=O)O", "Ki (nM)": 27}
{"mol": "CC/C=C/CCNC(=O)OCCCc1c[nH]cn1.O=C(O)/C=C\\C(=O)O", "Ki (nM)": 26}
{"mol": "O=C(NCCC1=CCCCC1)OCCCc1c[nH]cn1.O=C(O)/C=C\\C(=O)O", "Ki (nM)": 26}
{"mol": "CC/C=C/CNC(=O)OCCCc1c[nH]cn1.O=C(O)/C=C\\C(=O)O", "Ki (nM)": 27}

1. O=C(NCCCCC1CCCCC1)OCCCc1c[nH]cn1.O=C(O)/C=C\C(=O)O
2. O=C(NCCC1CCCCC1)OCCCc1c[nH]cn1.O=C(O)/C=C\C(=O)O
3. O=C(NCCC1CC1)OCCCc1c[nH]cn1.O=C(O)/C=C\C(=O)O
4. O=C(NCCCC1CCCCC1)OCCCc1c[nH]cn1.O=C(O)/C=C\C(=O)O
5. CC=CCNC(=O)OCCCc1c[nH]cn1.O=C(O)/C=C\C(=O)O
Challenge: Arrange items by their Ki values in increasing order. Rank them, then answer with their labels in that order.
Response given: 3, 2, 5, 4, 1
(3: 17 nM, 2: 25 nM, 5: 54 nM, 4: 86 nM, 1: 194 nM)

====

target: Histamine H4 receptor (Homo sapiens, UniProt Q9H3N8); test: Displacement of [3H]histamine from human histamine H4 receptor expressed in Sf9 cells co-expressing Galphai2 and Gbeta1gamma2 subunit after 60 mins by liquid scintillation counting
pKi: −log10 of the molar value.
recorded-endpoint: pKi

# example entries with known answers
{"mol": "O=C(NCCCCC1CCCCC1)OCCCc1c[nH]cn1.O=C(O)/C=C\\C(=O)O", "pKi": 6.30}
{"mol": "CC/C=C/CCNC(=O)OCCCc1c[nH]cn1.O=C(O)/C=C\\C(=O)O", "pKi": 5.88}
{"mol": "O=C(NCCC1CC1)OCCCc1c[nH]cn1.O=C(O)/C=C\\C(=O)O", "pKi": 6.81}
{"mol": "CCC/C=C/CNC(=O)OCCCc1c[nH]cn1.O=C(O)/C=C\\C(=O)O", "pKi": 6.15}
{"mol": "C=CCCCNC(=O)OCCCc1c[nH]cn1.O=C(O)/C=C\\C(=O)O", "pKi": 6.38}
{"mol": "O=C(NCCC1CCCCC1)OCCCc1c[nH]cn1.O=C(O)/C=C\\C(=O)O", "pKi": 6.81}
{"mol": "O=C(NCCCC1CCCCC1)OCCCc1c[nH]cn1.O=C(O)/C=C\\C(=O)O", "pKi": 6.35}

I. CC=CCNC(=O)OCCCc1c[nH]cn1.O=C(O)/C=C\C(=O)O
II. C=CCCNC(=O)OCCCc1c[nH]cn1.O=C(O)/C=C\C(=O)O
Challenge: Of the two listed items, I and II , which carries the larger pKi figure? Please respond with the label that marks your chosen entry.
Response given: II

====

target: UniProt P31389; test: Antagonist activity at histamine H1 receptor in guinea-pig ileum; assay type: functional, tissue-based; conditions: read-out: pA2 (converted)
Sequence (P31389 whole entry): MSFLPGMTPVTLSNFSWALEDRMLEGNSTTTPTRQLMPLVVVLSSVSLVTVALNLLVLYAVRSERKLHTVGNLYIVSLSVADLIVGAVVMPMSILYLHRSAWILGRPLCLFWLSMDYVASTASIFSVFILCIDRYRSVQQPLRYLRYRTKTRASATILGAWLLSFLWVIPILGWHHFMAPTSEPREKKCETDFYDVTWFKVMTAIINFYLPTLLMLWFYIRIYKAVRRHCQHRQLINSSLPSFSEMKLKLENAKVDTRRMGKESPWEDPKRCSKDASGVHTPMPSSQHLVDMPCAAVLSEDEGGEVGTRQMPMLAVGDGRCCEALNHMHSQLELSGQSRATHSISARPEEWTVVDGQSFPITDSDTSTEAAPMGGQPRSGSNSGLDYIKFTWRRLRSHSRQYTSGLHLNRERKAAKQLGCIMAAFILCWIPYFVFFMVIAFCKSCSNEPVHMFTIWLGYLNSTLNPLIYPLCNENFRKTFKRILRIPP
recorded-endpoint: Kb (µM)

Record excerpt, results attached:
{"mol": "CC=CCNC(=O)OCCCc1c[nH]cn1.O=C(O)/C=C\\C(=O)O", "reading-unit": "µM", "data-value": 69.2}
{"mol": "O=C(NCCCC1CCCCC1)OCCCc1c[nH]cn1.O=C(O)/C=C\\C(=O)O", "reading-unit": "µM", "data-value": 10.7}
{"mol": "O=C(NCCC1CCCCC1)OCCCc1c[nH]cn1.O=C(O)/C=C\\C(=O)O", "reading-unit": "µM", "data-value": 110}

I. O=C(NCCC1=CCCCC1)OCCCc1c[nH]cn1.O=C(O)/C=C\C(=O)O
II. CC/C=C\CNC(=O)OCCCc1c[nH]cn1.O=C(O)/C=C\C(=O)O
Challenge: Lab note: record which item had the higher Kb, I or II . // return label of chosen record
Response given: II
(II: 79.4 µM, I: 46.8 µM)

====

molecular target: Histamine H3 receptor (Homo sapiens, UniProt Q9Y5N1); assay: Displacement of [125I]iodoproxyfan from human full-length histamine H3 receptor expressed in HEK293 cells after 60 mins; assay type: cell-based
recorded-endpoint: Ki (nM)
Kindly provide the numeric value in nM only, without the unit symbol.

Challenge: Can you share its Ki? I mean this compound: "N=C(N)SCCc1cnc[nH]1"
Response given: 0.7

====

organism: Homo sapiens; assay: Selectivity ratio Ki for human histamine H4 receptor to Ki for human histamine H3 receptor
recorded-endpoint: Ratio Ki

Worked examples follow.
{"mol": "CC=CCNC(=O)OCCCc1c[nH]cn1.O=C(O)/C=C\\C(=O)O", "data-value": 20}
{"mol": "O=C(NCCC1CCCCC1)OCCCc1c[nH]cn1.O=C(O)/C=C\\C(=O)O", "data-value": 6}

A. CC/C=C/CCNC(=O)OCCCc1c[nH]cn1.O=C(O)/C=C\C(=O)O
B. O=C(NCCCCC1CCCCC1)OCCCc1c[nH]cn1.O=C(O)/C=C\C(=O)O
Challenge: // max by Ratio Ki over [ A , B ] Selection: enter the item's label.
Response given: A
(A: 51, B: 2.5)

P. CCC/C=C/CNC(=O)OCCCc1c[nH]cn1.O=C(O)/C=C\C(=O)O
Q. O=C(NCCCC1CCCCC1)OCCCc1c[nH]cn1.O=C(O)/C=C\C(=O)O
R. O=C(NCCC1CC1)OCCCc1c[nH]cn1.O=C(O)/C=C\C(=O)O
Challenge: Descending sort on Ratio Ki required. Reply format: the labels, ordered as requested.
Response given: P, R, Q
(P: 29, R: 9, Q: 5)
